assay: Toxicity liver stage against HepG2, at 10uM; format: cell-based; design: test concentration 10 uM, cell line HepG2-A16-CD81EGFP; conditions: human, HepG2-A16-CD81EGFP cells; read-out: INHIBITION
Quick list: cytotoxicity at 10 µM per entry.
Please state the figure in %; there is no need to write the unit.

Sample records with cytotoxicity at 10 µM:
COMPOUND: CNC(=O)CCN1CCN(C(C)c2ccc(Cl)cc2)CC1 (configuration not stated)
cytotoxicity at 10 µM (%): -0.82
//
COMPOUND: Cc1[nH]c2ccccc2c1-c1ccnc(NCCN2CCCCC2)n1
cytotoxicity at 10 µM (%): -1.36
//
COMPOUND: Cn1nnc2c1CCN(C(=O)C1CC1)C2COCCN1CCCC1 (configuration not stated)
cytotoxicity at 10 µM (%): 8.33
//
COMPOUND: Cc1nc(CNCC2CCCN2c2cccnn2)oc1C (configuration not stated)
cytotoxicity at 10 µM (%): -3.31
//
COMPOUND: Cc1cccc(C)c1OCCNC(=O)C(C)n1cncn1 (configuration not stated)
cytotoxicity at 10 µM (%): -1.46

Q: I am curious: what cytotoxicity at 10 µM value has been reported for O=C(NCCN1CCCCCC1=O)NCc1ccc(Cl)s1 ?
Result: -1.08

Q: May I ask what cytotoxicity at 10 µM has been recorded for O=C(Cn1c(=O)[nH]c2cn(-c3ccccc3)c(=O)n21)Nc1ccccc1 ?
Result: 18.6

Q: Look at this compound and give its reported cytotoxicity at 10 µM. Cn1cccc1C(=O)N1CCn2cc(CN3CCCC3)nc2C1
Result: -72.3

Q: Any idea what cytotoxicity at 10 µM was measured for CCOCC1c2c(cnn2C)CCN1C(=O)c1cc(C)on1 (configuration not stated) ?
Result: -81.9

----------
compounds and their reported cytotoxicity at 10 µM
assay: Toxicity liver stage against HepG2, at 10uM; format: cell-based; set-up: test concentration 10 uM, cell line HepG2-A16-CD81EGFP; conditions: human, HepG2-A16-CD81EGFP cells; read-out: INHIBITION
Your answer is read as %, so omit the unit and give the number.

COMPOUND: O=C(NC1CCCC1)c1cc2c(s1)CCN2C(=O)c1ccccc1
ENDPOINT_UNIT: %
cytotoxicity at 10 µM: 6.55

COMPOUND: CCCN1C(=O)[C@@H]2CC[C@H]1CN(S(=O)(=O)c1cccc(Cl)c1)C2
ENDPOINT_UNIT: %
cytotoxicity at 10 µM: -2.78

COMPOUND: CN1CCCC(CCC(=O)N2CCc3c(nc(CC4CC4)[nH]c3=O)C2)C1 (stereo unspecified)
ENDPOINT_UNIT: %
cytotoxicity at 10 µM: -8.61

COMPOUND: Cc1nn(C)c(N(C)C)c1CNCc1ccc(OCC(N)=O)cc1
ENDPOINT_UNIT: %
cytotoxicity at 10 µM: 1.25

COMPOUND: CCC(C)(C)NC(=O)CN(Cc1cccc(O)c1)C1CCC(O)CC1 (stereo unspecified)
ENDPOINT_UNIT: %
cytotoxicity at 10 µM: -2.22

Q: Dear colleague, I am looking for the recorded cytotoxicity at 10 µM of the following compound: CN1CCOC(CN(C(=O)CCCn2cccn2)c2nccs2)C1 (stereo unspecified)
Result: -22.7

Q: GET /values?readout=cytotoxicity at 10 µM&item= CN(CC(=O)N1CCC(Cc2cccc(C(N)=O)c2)C1)C1CCCC1 (stereo unspecified)
Result: -7.92

Q: Dear colleague, I am looking for the recorded cytotoxicity at 10 µM of the following compound: Cc1nc2cc(CNC(=O)C3CC(=O)N(CCN(C)C)C3)ccc2n1C (stereo unspecified)
Result: -4.31

Q: Given the entry CC(CN1CCOC1=O)NC(=O)c1cccc(C#N)c1 (stereo unspecified) , report its measured cytotoxicity at 10 µM.
Result: -8.37

Q: Name the recorded cytotoxicity at 10 µM for O=C(CC1CC1)N1Cc2nccn2CC(CN2CCCC2)C1 (stereo unspecified) .
Result: -67.7

Q: Consider the compound NC(=O)CN1CCC(Nc2ccnc3ccc(Cl)cc23)CC1 and give its measured cytotoxicity at 10 µM.
Result: 31.8

----------
experiment: Toxicity liver stage against HepG2, at 10uM; assay type: cell-based; set-up: test concentration 10 uM, cell line HepG2-A16-CD81EGFP; conditions: human, HepG2-A16-CD81EGFP cells; read-out: INHIBITION
READOUT_KIND: cytotoxicity at 10 µM (%)
Express it in %; write the number only.

COMPOUND: CC(CO)CN(Cc1ccccc1)Cc1c[nH]cn1 (configuration not stated)
OBSERVED_RESULT: 6.04
--
COMPOUND: CCc1nnc2n1CCN(Cc1csc(-c3cnn(C)c3)n1)C2
OBSERVED_RESULT: 18.4
--
COMPOUND: COc1ncccc1NC(=O)C1CC(=O)N(Cc2ccccn2)C1 (configuration not stated)
OBSERVED_RESULT: -1.2
--
COMPOUND: CCc1nc(CN(C)CC(c2cccs2)N2CCOCC2)no1 (configuration not stated)
OBSERVED_RESULT: -2.36
--
COMPOUND: Cc1oncc1C(=O)N1CC2CC1(C(=O)NCc1ccco1)C2
OBSERVED_RESULT: 4.76
--
COMPOUND: CC(C)SCc1cccc(NC(=O)NCCc2nnc[nH]2)c1
OBSERVED_RESULT: -46.1

Consider the record given below.
Q: Param item = CCOc1ncccc1NC(=O)N1CCCC1c1cc(C)no1 (configuration not stated) ; retrieve measured cytotoxicity at 10 µM.
Result: 0.87

----------
Catalogue of cytotoxicity at 10 µM values
assay: Toxicity liver stage against HepG2, at 10uM; format: cell-based; set-up: test concentration 10 uM, cell line HepG2-A16-CD81EGFP; conditions: human, HepG2-A16-CD81EGFP cells; read-out: INHIBITION
Give the number; % is assumed, so skip it.

Check out these entries, answers already filled in.
COMPOUND: CCc1cnc(CN2CCCC2c2noc(C3CC3)n2)o1 (stereo not drawn)
cytotoxicity at 10 µM / %: -4.84

COMPOUND: CC(=O)N1CCC(c2cnc(NC3CCOCC3)cn2)CC1
cytotoxicity at 10 µM / %: -3.73

COMPOUND: CS(=O)(=O)Cc1nc(CCc2ccccc2)nn1-c1ccccn1
cytotoxicity at 10 µM / %: 3.36

COMPOUND: COc1ccc(C(=O)N2C[C@@H](CN3CCCC3)[C@@H](CO)C2)c(C)c1
cytotoxicity at 10 µM / %: -7.21

COMPOUND: CN1CCOC(C)(C(=O)Nc2nc(C(C)(C)C)cs2)C1 (stereo not drawn)
cytotoxicity at 10 µM / %: 6.52

COMPOUND: CC1CCCCN1CCN(C)C(=O)c1cc(CN2CCC(O)CC2)on1 (stereo not drawn)
cytotoxicity at 10 µM / %: 1.14

COMPOUND: Cc1ccc(CSc2nc(N)cc(NCCC(N)=O)n2)cc1
cytotoxicity at 10 µM / %: 0.375

COMPOUND: Cc1ccc2c(c1)C1(CCN(C(N)=O)CC1)CN2CC1CC1
cytotoxicity at 10 µM / %: -109

Q: What value of cytotoxicity at 10 µM has been reported for the following compound? CCS(=O)(=O)c1ccc2oc([C@H]3CCN(Cc4ccncc4)C3)nc2c1
Result: 23.7

Q: Query (compound): Cc1c(-c2nc(-c3cccc(CN4CCOCC4)c3)no2)cnn1C ; field requested: cytotoxicity at 10 µM
Result: -0.988

Q: Name the reported cytotoxicity at 10 µM value associated with the compound O=C(O)c1ccc2c(c1)C1(CCCCC1)CN2C(=O)c1cccs1
Result: 3.01

----------
test: Toxicity liver stage against HepG2, at 10uM; assay type: cell-based; parameters: test concentration 10 uM, cell line HepG2-A16-CD81EGFP; settings: human, HepG2-A16-CD81EGFP cells; read-out: INHIBITION
READOUT_KIND: cytotoxicity at 10 µM (%)
Write the number in % without appending the unit.

Example cases with answers are listed next.
MOLECULE: Cn1cnc(CN2Cc3nccn3CC2c2ccccc2)c1 (configuration not stated)
cytotoxicity at 10 µM (%): 2.98
--
MOLECULE: CCc1nn(C)c(Cl)c1CN1CCC(Cc2nncn2C)CC1
cytotoxicity at 10 µM (%): -1.52
--
MOLECULE: CCN(CC)C(=O)Cn1c(-c2ccc(Cl)cc2)nc(C)c(CCO)c1=O
cytotoxicity at 10 µM (%): 2.62
--
MOLECULE: Cc1n[nH]c(C)c1CCCN(C)c1cc(N(C)C)ncn1
cytotoxicity at 10 µM (%): -3.37
--
MOLECULE: Cc1cc(NC(=O)CN2CCCC2Cn2nc(C)nc2C)on1 (configuration not stated)
cytotoxicity at 10 µM (%): -3.31
--
MOLECULE: Cc1noc(Cl)c1CCC(=O)N1CCN(c2ncccn2)CC1
cytotoxicity at 10 µM (%): -2.01

Q: Please report the recorded cytotoxicity at 10 µM for Cc1nn(C)cc1CN(C)Cc1cc2c(cc1OC(F)F)OCO2 .
Result: -3.53

Q: Would you mind telling me what cytotoxicity at 10 µM value was observed for Cc1nc(N2CCN(C)CC2)ncc1C(=O)N1C[C@@H](C)[C@@](C)(O)C1 ?
Result: 2.32

Q: For the molecule Cc1cc(C(=O)NS(C)(=O)=O)ccc1I , what cytotoxicity at 10 µM is on record?
Result: 6.85

Q: Fill in: cytotoxicity at 10 µM of CC(C)c1noc(CN2CCC3(CCCO3)CCC2=O)n1 (configuration not stated) is ___
Result: 0.145

Q: Which measured cytotoxicity at 10 µM value corresponds to COc1cc(N2CCC3(CCN(Cc4cccnc4)C3=O)C2)ncn1 (configuration not stated) ?
Result: -107

Q: Tell me the measured cytotoxicity at 10 µM of CC(C)c1ccc(OCCNC(=O)CN2CCN(C)CC2C)cc1 (configuration not stated) , please.
Result: -13.2
